biological target: eIF2Bα (Homo sapiens, UniProt Q14232); construct: made in house; host or cells: E. coli BL21(DE3); test: MIDAS (mass spectrometry integrated with equilibrium dialysis) metabolite binding screen; settings: MIDAS screen, sheet eIF2Ba; metabolites screened in pools 1-4; p-value and q-value given
property.name: log2(corrected fold change)
Numbers only.

Reference set (3 entries):
O=C(O)C=Cc1c[nH]cn1 [4-Imidazoleacrylic acid] = -0.125
CSCC[C@H](N)C(=O)O [L-Methionine] = 0.06465
O=CC[C@H](O)[C@H](O)CO [2-Deoxy-D-ribose] = -0.2249

Batch request: log2(corrected fold change) for each of the following compounds.
1. N[C@H]1C(O)O[C@H](CO)[C@@H](O)[C@@H]1O (stereo partly drawn) [D-Glucosamine]
2. O=c1[nH]c(=O)c2nc[nH]c2[nH]1 [Xanthine]
3. CC(=O)CC(=O)SCCNC(=O)CCNC(=O)[C@H](O)C(C)(C)COP(=O)(O)OP(=O)(O)OC[C@H]1O[C@@H](n2cnc3c(N)ncnc32)[C@H](O)[C@@H]1OP(=O)(O)O [Acetoacetyl coenzyme A]
4. O=C1OC[C@@H](O)[C@H]1O [D-Erythrono-1,4-lactone]
5. Cc1cc2nc3c(=O)[nH]c(=O)nc-3n(C[C@H](O)[C@H](O)[C@H](O)CO)c2cc1C [Riboflavin]
6. OC[C@H]1O[C@@](CO)(O[C@H]2O[C@H](CO)[C@@H](O)[C@H](O)[C@H]2O)[C@@H](O)[C@@H]1O [Sucrose]
7. O=C(CO)COP(=O)(O)O [Glycerone phosphate]

[0.1378, -0.1163, 0.4297, -0.2396, 0.3728, -0.3372, 0.09175]

Batch request: log2(corrected fold change) for each of the following compounds.
1. N[C@@H](Cc1c[nH]c2ccc(O)cc12)C(=O)O [5-Hydroxy-L-tryptophan]
2. O=C1CCNC(=O)N1 [Dihydrouracil]
3. N[C@H](CC(=O)O)C(=O)O [D-Aspartate]
4. CCCCC[C@H](O)/C=C/[C@H]1C(=O)C[C@H](O)[C@@H]1C/C=C\CCCC(=O)O [Prostaglandin D2]
5. CC(C)[C@H](N)C(=O)O [L-Valine]
6. O=C(COP(=O)(O)O)[C@@H](O)[C@H](O)[C@H](O)COP(=O)(O)O [D-Fructose 1,6-bisphosphate]

1: -0.8537; 2: -0.08721; 3: 0.03257; 4: 0.05625; 5: -0.07845; 6: -0.7792

Batch request: log2(corrected fold change) for each of the following compounds.
1. CCC(C)C(=O)C(=O)O (stereo not shown) [3-Methyl-2-oxovaleric acid]
2. NC(=O)c1ccc[n+]([C@@H]2O[C@H](COP(=O)([O-])O)[C@@H](O)[C@H]2O)c1 [Nicotinamide ribotide]
3. OCC(O)c1ccc(O)c(O)c1 (racemic) [DL-3,4-Dihydroxyphenyl glycol]
4. O=P(O)(O)OC[C@H]1OC(O)(CO)[C@@H](O)[C@@H]1O (stereo partly drawn) [D-Fructose 6-phosphate]
5. O=C(O)c1cccnc1 [Nicotinic acid]

-0.05419
1.511
-0.07769
-0.1344
-0.1307

Batch request: log2(corrected fold change) for each of the following compounds.
1. O=C(O)CNC(=O)c1ccco1 [N-2-Furoylglycine]
2. NC(=O)NCCCC[C@H](N)C(=O)O [Homocitrulline]

[-0.1649, 0.1565]

----------
Would you kindly list log2(corrected fold change) for each of these compounds?
Molecular target: eIF2Bα (Homo sapiens, UniProt Q14232)
Construct: made in house; host or cells: E. coli BL21(DE3)
Sequence (Q14232 1-305): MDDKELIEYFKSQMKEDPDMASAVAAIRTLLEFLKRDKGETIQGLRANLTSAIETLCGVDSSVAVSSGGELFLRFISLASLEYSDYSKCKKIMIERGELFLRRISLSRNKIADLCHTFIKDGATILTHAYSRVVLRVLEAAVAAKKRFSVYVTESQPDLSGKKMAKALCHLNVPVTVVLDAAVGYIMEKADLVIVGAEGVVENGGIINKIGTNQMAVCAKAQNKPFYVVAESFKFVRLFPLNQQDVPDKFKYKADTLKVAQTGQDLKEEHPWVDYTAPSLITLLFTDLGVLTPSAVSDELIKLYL
Assay: MIDAS (mass spectrometry integrated with equilibrium dialysis) metabolite binding screen
Details: MIDAS metabolite binding screen with eIF2Bα; sheet "eIF2Ba"

C[N+](C)(C)CCOP(=O)([O-])OC[C@H](O)CO [Choline glycerophosphate] = -0.09086
Cc1cn([C@H]2C[C@H](O)[C@@H](COP(=O)(O)O)O2)c(=O)[nH]c1=O [Thymidine monophosphate] = -0.007923

Batch request: log2(corrected fold change) for each of the following compounds.
1. Nc1ncnc2c1ncn2[C@@H]1O[C@H](COP(=O)(O)OP(=O)(O)NP(=O)(O)O)[C@@H](O)[C@H]1O [Adenyl imidodiphosphate]
2. NC(=O)C1=CN([C@@H]2O[C@H](COP(=O)(O)OP(=O)(O)OC[C@H]3O[C@@H](n4cnc5c(N)ncnc54)[C@H](O)[C@@H]3O)[C@@H](O)[C@H]2O)C=CC1
3. C[C@@H](O)[C@H](N)C(=O)O
4. CC(=O)N[C@@H](CC(=O)O)C(=O)O [N-Acetyl-L-aspartate]
5. NC(=O)c1ccc[n+]([C@@H]2O[C@H](COP(=O)([O-])OP(=O)(O)OC[C@H]3O[C@@H](n4cnc5c(N)ncnc54)[C@H](OP(=O)(O)O)[C@@H]3O)[C@@H](O)[C@H]2O)c1
6. O=C(O)/C=C(/CC(=O)O)C(=O)O [cis-Aconitic acid]
7. NCCC(=O)O

-0.08962
0.1674
-0.05619
0.003577
0.02005
0.003317
0.0004222

Return log2(corrected fold change) measured with eIF2Bα (Homo sapiens, UniProt Q14232) given this compound: NC1CCCNC1=O (stereo not shown) 0.003124

----------
target: eIF2Bα (Homo sapiens); construct: made in house; host or cells: E. coli BL21(DE3); assay: MIDAS (mass spectrometry integrated with equilibrium dialysis) metabolite binding screen; details: MIDAS screen, sheet eIF2Ba; metabolites screened in pools 1-4; p-value and q-value given
property.name: log2(corrected fold change)
Give bare numbers.

Reference set (3 entries):
Cc1cn([C@H]2C[C@H](O)[C@@H](COP(=O)(O)OP(=O)(O)OP(=O)(O)O)O2)c(=O)[nH]c1=O [Thymidine 5-triphosphate] = 0.01939
Cc1cn([C@H]2C[C@H](O)[C@@H](CO)O2)c(=O)[nH]c1=O [Thymidine] = 0.1162
C[N+](C)(C)CC(=O)O [Betaine] = 0.2268

Batch request: log2(corrected fold change) for each of the following compounds.
1. NC(N)=O [Urea]
2. C[C@H](CO)C(=O)O [(R)-Hydroxyisobutyrate]
3. CC(CN)C(=O)O (stereo not shown) [3-Aminoisobutyric acid]
4. O=C(O)[C@@H]1CCC(O)=N1 [L-Pyroglutamic acid]
5. NC(=O)c1cccnc1 [Nicotinamide]
6. O=C1C[C@@H](C(=O)O)NC(=O)N1 [L-Dihydroorotic acid]

[-0.06736, 0.07137, -0.1018, -0.09309, -0.1042, -0.07946]

----------
Target: eIF2Bα (Homo sapiens)
Construct: made in house; host or cells: E. coli BL21(DE3)
Sequence (Q14232 1-305): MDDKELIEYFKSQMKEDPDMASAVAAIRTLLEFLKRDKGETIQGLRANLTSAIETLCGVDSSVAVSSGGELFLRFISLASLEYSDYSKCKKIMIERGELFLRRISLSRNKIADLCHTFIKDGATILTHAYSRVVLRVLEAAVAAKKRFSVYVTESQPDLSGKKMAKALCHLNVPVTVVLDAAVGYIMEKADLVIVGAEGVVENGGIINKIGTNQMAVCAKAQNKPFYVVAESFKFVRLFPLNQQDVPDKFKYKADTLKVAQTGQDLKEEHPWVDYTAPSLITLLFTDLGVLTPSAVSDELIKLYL
Experiment: MIDAS (mass spectrometry integrated with equilibrium dialysis) metabolite binding screen
Conditions: MIDAS metabolite binding screen with eIF2Bα; sheet "eIF2Ba"
Note to self: use satisfied only for log2(corrected fold change) readings below 0.04; a reading exactly at 0.04 still gets not satisfied.

Field: example entries. Status: answers known.
O=C(CO)N[C@H]1[C@H]([C@H](O)[C@H](O)CO)OC(O)(C(=O)O)C[C@@H]1O (stereo partly drawn) [N-Glycolylneuraminic acid] = satisfied
Nc1c(O)cccc1C(=O)CC(N)C(=O)O (racemic) [3-Hydroxy-DL-kynurenine] = not satisfied
O=C(O)CNC(=O)c1ccccc1 [Hippuric acid] = not satisfied
Nc1nc(=O)c2nc(CNc3ccc(C(=O)N[C@@H](CCC(=O)O)C(=O)O)cc3)cnc2[nH]1 [Folic acid] = satisfied
OCC(O)COC1OC(CO)C(O)C(O)C1O (stereo not drawn) [2,3-Dihydroxypropyl hexopyranoside] = satisfied
CC(C)C(=O)C(=O)O [3-methyl-2-oxobutyrate] = satisfied

Input OC[C@@H](O)C(O)[C@H](O)CO [D-Arabitol] ; condition: log2(corrected fold change) strictly below 0.04. Does it hold? satisfied

Input CC(=O)N[C@H]1C(O)O[C@H](CO)[C@@H](O)[C@@H]1O[C@H](C)C(=O)O (stereo partly drawn) [N-Acetylmuramic acid] ; condition: log2(corrected fold change) strictly below 0.04. Does it hold? satisfied

Input N[C@@H](CCCCN[C@@H](CCC(=O)O)C(=O)O)C(=O)O [L-Saccharopine] ; condition: log2(corrected fold change) strictly below 0.04. Does it hold? satisfied
